Listing: GI50 of selected compounds
# Test system: Glioma U373V (MGMT low)
# assay_details: MTT assay for 7-day toxicity assay
# Assay type: cell-based
# particulars: Glioma U373V (MGMT low); 7-day MTT; single determinations; read-out: GI50
# Procedure: The cell culture techniques were carried out in a Class II microbiological safety cabinet which was swabbed with 70% IMS in distilled water before each use. […] MRC-5 cells were cultured in EMEM. Cells were grown in a humidified incubator containing 5% CO2 at 37° C. […] After incubation at 37° C., 5% CO2 for 7 days (or immediately for the day 0 plate), cell viability was quantified using the MTT assay. […] The intensity of absorbance is directly proportional to cell viability.
endpoint: GI50 (µM)

- C[Si](C)(C)C#CCn1nnc2c(C(N)=O)ncn2c1=O: 33.6
- COc1ccc(Cn2nnc3c(C(N)=O)ncn3c2=O)cc1OC: 259
- NC(=O)c1ncn2c(=O)n(CCC(=O)O)nnc12: 248
- NC(=O)c1ncn2c(=O)n(CC(=O)N3CCOCC3)nnc12: 291

---

# Test system: Glioma U373V (MGMT low)
# assay_details: MTT assay for 7-day toxicity assay
# Format: cell-based
# particulars: Glioma U373V (MGMT low); 7-day MTT; single determinations; read-out: GI50
Each record is given Criterion met if its reported GI50 is strictly below 200 µM. Records at or above 200 µM are given Criterion not met.

- NC(=O)Cn1nnc2c(C(N)=O)ncn2c1=O: Criterion met
- CC(=O)OCn1nnc2c(C(N)=O)ncn2c1=O: Criterion met
- CSCn1nnc2c(C(N)=O)ncn2c1=O: Criterion met
- COc1ccc([C@@H](C)n2nnc3c(C(N)=O)ncn3c2=O)cc1: Criterion met
- CSCCn1nnc2c(C(N)=O)ncn2c1=O: Criterion not met
- CNC(=O)Cn1nnc2c(C(N)=O)ncn2c1=O: Criterion not met
- CC#CCn1nnc2c(C(N)=O)ncn2c1=O: Criterion met
- NC(=O)c1ncn2c(=O)n(Cc3ccsc3)nnc12: Criterion met
- CC[C@@H](c1ccccc1)n1nnc2c(C(N)=O)ncn2c1=O: Criterion met
- NC(=O)c1ncn2c(=O)n(C3CCCC3)nnc12: Criterion met
- NC(=O)c1ncn2c(=O)n(Cc3c[nH]nn3)nnc12: Criterion not met

---

# Test system: Normal Human Fetal Lung Fibroblast MRC-5
# assay_details: MTT assay for 7-day toxicity assay
# Format: cell-based
# particulars: Homo sapiens, MRC5, 168 h, Normal Human Fetal Lung Fibroblast MRC-5; 7-day MTT; single determinations; read-out: GI50
Each record is given true (1) if its reported GI50 is strictly below 100 µM. Records at or above 100 µM are given false (0).

* C#CCn1nnc2c(C(N)=O)ncn2c1=O | true (1)
* Cn1nnc2c(C(N)=O)ncn2c1=O [TMZ, reference compound] | false (0)
* CCOC(=O)Cn1nnc2c(C(N)=O)ncn2c1=O | false (0)
* NC(=O)c1ncn2c(=O)n(Cc3ccco3)nnc12 | true (1)
* C[C@H](c1ccccc1)n1nnc2c(C(N)=O)ncn2c1=O | false (0)
* CC[C@@H](c1ccccc1)n1nnc2c(C(N)=O)ncn2c1=O | false (0)

---

# System: Melanoma SKMEL-28 (MMR proficient)
# assay_details: MTT assay for 7-day toxicity assay
# Type: cell-based
# particulars: Homo sapiens, SK-MEL-28, 168 h, Melanoma SKMEL-28 (MMR proficient); 7-day MTT; single determinations; read-out: GI50
# Description: The cell culture techniques were carried out in a Class II microbiological safety cabinet which was swabbed with 70% IMS in distilled water before each use. […]
endpoint: GI50

* Cn1nnc2c(C(N)=O)ncn2c1=O [TMZ, reference compound] | 419 µM
* CCOC(=O)Cn1nnc2c(C(N)=O)ncn2c1=O [PX-016] | 92.8 µM
* C[C@@H](c1ccccc1)n1nnc2c(C(N)=O)ncn2c1=O [BB-002] | 222 µM
* NC(=O)c1ncn2c(=O)n(Cc3ccco3)nnc12 [PX-004] | 53.4 µM
* C#CCn1nnc2c(C(N)=O)ncn2c1=O [EE-001] | 48.5 µM
* NC(=O)c1ncn2c(=O)n(CCc3ccccc3)nnc12 [DD-001] | 424 µM
* COc1cccc(Cn2nnc3c(C(N)=O)ncn3c2=O)c1 [AA-003] | 422 µM
* COc1cc(Cn2nnc3c(C(N)=O)ncn3c2=O)cc(OC)c1OC [AA-002] | 293 µM

Ref: patent US8450479B2
